These data points were gathered from ChEMBL document CHEMBL1153940.

- TESTED_ON: UniProt:P30551
- Sequence (P30551 whole entry): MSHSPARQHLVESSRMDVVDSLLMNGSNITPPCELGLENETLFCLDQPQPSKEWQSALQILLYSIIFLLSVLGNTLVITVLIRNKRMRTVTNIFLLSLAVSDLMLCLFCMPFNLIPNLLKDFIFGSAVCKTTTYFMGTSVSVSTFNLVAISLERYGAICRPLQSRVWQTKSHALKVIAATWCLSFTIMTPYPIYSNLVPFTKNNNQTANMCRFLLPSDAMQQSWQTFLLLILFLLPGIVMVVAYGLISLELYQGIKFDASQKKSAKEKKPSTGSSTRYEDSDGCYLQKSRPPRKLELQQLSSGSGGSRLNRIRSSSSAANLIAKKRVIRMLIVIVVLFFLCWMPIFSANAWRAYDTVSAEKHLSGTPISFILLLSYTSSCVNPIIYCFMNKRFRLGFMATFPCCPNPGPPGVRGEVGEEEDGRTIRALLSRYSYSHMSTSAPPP
Label scheme for IC50: low: < 200 nM; intermediate: ≥ 200 nM and < 3000 nM; high: ≥ 3000 nM

Please review the following examples before continuing.
>  <COMPOUND>
CC(C)CC(NC(=O)c1ccccc1NC(=O)c1cc2ccccc2[nH]1)C(=O)O (racemic)

>  <TESTED_ON>
UniProt:P30551

>  <GROUP>
low

$$$$
>  <COMPOUND>
O=C(O)CNC(=O)c1ccccc1NC(=O)c1cc2ccccc2[nH]1

>  <TESTED_ON>
UniProt:P30551

>  <GROUP>
high

$$$$
>  <COMPOUND>
CC(Cc1ccccc1)NC(=O)c1ccccc1NC(=O)c1cc2ccccc2[nH]1 (racemic)

>  <TESTED_ON>
UniProt:P30551

>  <GROUP>
high

$$$$
>  <COMPOUND>
CC(C)C(NC(=O)c1ccccc1NC(=O)c1cc2ccccc2[nH]1)C(=O)O (racemic)

>  <TESTED_ON>
UniProt:P30551

>  <GROUP>
intermediate

$$$$
>  <COMPOUND>
NC(=O)C(Cc1ccccc1)NC(=O)c1ccccc1NC(=O)c1cc2ccccc2[nH]1 (racemic)

>  <TESTED_ON>
UniProt:P30551

>  <GROUP>
high

$$$$

# classify by IC50 band: CSCC[C@H](NC(=O)c1ccccc1NC(=O)c1cc2ccccc2[nH]1)C(=O)O
intermediate
